- TARGET_DESC: LRRK2 (G2019S) (Homo sapiens, UniProt Q5S007, G2019S)
- Sequence (Q5S007 970-2527 G2019S limits assumed): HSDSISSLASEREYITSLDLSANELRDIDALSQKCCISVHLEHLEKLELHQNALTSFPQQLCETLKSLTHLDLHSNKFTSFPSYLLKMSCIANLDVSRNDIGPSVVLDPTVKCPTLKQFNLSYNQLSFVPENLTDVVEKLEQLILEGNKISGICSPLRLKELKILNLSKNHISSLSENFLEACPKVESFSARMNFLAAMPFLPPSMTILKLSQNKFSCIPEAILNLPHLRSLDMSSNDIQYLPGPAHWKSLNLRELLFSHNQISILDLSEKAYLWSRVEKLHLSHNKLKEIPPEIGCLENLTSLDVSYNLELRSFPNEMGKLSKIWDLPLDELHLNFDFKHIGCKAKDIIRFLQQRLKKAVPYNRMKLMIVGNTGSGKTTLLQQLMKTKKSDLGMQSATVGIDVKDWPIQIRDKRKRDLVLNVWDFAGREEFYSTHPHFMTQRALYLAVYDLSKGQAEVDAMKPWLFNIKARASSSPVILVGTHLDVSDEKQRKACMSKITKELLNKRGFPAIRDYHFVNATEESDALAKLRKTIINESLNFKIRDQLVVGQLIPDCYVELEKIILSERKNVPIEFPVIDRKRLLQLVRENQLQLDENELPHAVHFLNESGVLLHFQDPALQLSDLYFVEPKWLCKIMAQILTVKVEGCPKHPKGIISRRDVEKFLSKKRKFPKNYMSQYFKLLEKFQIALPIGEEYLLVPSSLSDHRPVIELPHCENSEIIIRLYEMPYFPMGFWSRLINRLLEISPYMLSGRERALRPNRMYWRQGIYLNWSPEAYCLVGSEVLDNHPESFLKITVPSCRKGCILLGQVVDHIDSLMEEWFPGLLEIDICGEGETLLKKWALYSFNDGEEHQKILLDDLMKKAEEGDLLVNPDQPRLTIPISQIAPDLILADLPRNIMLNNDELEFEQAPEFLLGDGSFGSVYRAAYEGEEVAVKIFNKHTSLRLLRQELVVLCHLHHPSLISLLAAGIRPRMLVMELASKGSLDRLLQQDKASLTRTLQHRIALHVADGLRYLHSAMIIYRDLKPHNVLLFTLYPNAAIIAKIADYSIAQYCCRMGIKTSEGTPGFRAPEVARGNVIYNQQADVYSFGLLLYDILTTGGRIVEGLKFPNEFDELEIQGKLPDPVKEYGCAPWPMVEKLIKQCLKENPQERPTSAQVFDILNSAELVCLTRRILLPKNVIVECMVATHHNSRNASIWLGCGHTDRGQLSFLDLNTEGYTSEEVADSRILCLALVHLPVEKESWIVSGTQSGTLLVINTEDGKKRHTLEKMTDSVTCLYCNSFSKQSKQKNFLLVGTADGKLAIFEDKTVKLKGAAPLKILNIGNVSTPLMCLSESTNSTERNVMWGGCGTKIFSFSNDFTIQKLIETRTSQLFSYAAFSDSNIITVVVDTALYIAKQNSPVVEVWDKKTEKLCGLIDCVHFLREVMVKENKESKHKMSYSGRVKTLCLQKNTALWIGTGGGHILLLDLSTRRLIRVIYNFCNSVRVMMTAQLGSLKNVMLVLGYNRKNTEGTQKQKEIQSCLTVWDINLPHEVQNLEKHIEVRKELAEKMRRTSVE
- METHOD_DESCRIPTION: LRRK2 G2019S enzyme inhibition, ADP-Glo kinase assay
- Assay type: biochemical
- Parameters: purchased SignalChem L10-12GG
Collected IC50 values appear next to each entry.

Query block: Reported IC50, compound `N#Cc1c[nH]c2nc(Nc3ccc(C(=O)N4CCOCC4)c4c3OCCO4)cc(C3CC3)c12` : ____
Result block: < 100 nM

Query block: Reported IC50, compound `COCCNc1cc(Nc2ccc(C(=O)N3CCOCC3)c3c2OCCO3)nc2[nH]cc(C#N)c12` : ____
Result block: < 100 nM

----------
- Test system: human DYRK1A and Tau
- METHOD_DESCRIPTION: Tau phosphorylation inhibition, ClariCELL Kinase Cell-Based Assay (Carnabio)
- TEST_SETTINGS: 0.5 uM
- Protocol: Tau phosphorylation inhibitory efficacy was measured using the ClariCELL™ Kinase Cell-Based Assay service of Carnabio, located in the United States. The compounds are exposed to human embryonic kidney ([…]) cells transiently expressing human DYRK1A and Tau, and then the cells are lysed to release cellular proteins. At this time, the released Tau is captured on a plate, and the degree of phosphorylation is quantified by ELISA using an antibody specific for Tau phosphorylation.
Think of 50% as a floor: if inhibition at 0.5 µM stands on it or above, it is MET; beneath it, NOT MET.

| MOL_SMILES | LABEL |
| --- | --- |
| CCNc1cc(Nc2ccc(C(=O)N3CCC(N4C[C@H]5C[C@@H]4CO5)CC3)c3c2OCC3)nc2[nH]cc(C(F)(F)F)c12 | MET |
| COCCNc1cc(Nc2ccc(P3(=O)CCN(C4CCOCC4)CC3)cc2OC)nc2[nH]cc(C(F)(F)F)c12 | NOT MET |
| CNc1cc(Nc2ccc(C(=O)N3CC[C@@H](N4CCOCC4)C3)c3c2OCC3)nc2[nH]cc(C(F)(F)F)c12 | MET |
| CCNc1cc(Nc2ccc(P3(=O)CCN(C4CCOCC4)CC3)cc2OC)nc2[nH]cc(C(F)(F)F)c12 | NOT MET |
| COc1cc(S(=O)(=O)N2CCC(N3C[C@@H]4C[C@H]3CO4)CC2)ccc1Nc1cc(C2CC2)c2c(C(F)(F)F)c[nH]c2n1 | NOT MET |

Now examine the next entry.
Query block: Answer whether inhibition at 0.5 µM of `O=C(c1ccc(Nc2cc(C3CC3)c3c(C(F)(F)F)c[nH]c3n2)c2c1OCCO2)N1CCC(N2CCOCC2)CC1` is greater than or equal to 50%.
Result block: NOT MET

----------
- TARGET_DESC: LRRK2 (G2019S) (Homo sapiens, UniProt Q5S007, G2019S)
- METHOD_DESCRIPTION: LRRK2 G2019S enzyme inhibition, ADP-Glo kinase assay
- Method: In order to evaluate the inhibitory activity of the compounds according to the present invention on LRRK2, LRRK2 (G2019S), DYRK1, CLK1 and TTK kinases, the following experiment was performed. Example compounds were reacted with the purified human LRRK2 G2019S (L10-12GG, SignalChem) enzyme to evaluate the enzyme inhibitory ability as follows. […]
Collected IC50 values appear next to each entry.

Query block: Reported IC50, molecule C=CCNc1cc(Nc2ccc(C(=O)N3CC[C@H](N4CCOCC4)C3)c3c2OCC3)nc2[nH]cc(C(F)(F)F)c12 [Example 262] : ____
Result block: < 100 nM

Query block: Reported IC50, molecule CCNc1cc(Nc2ccc(P3(=O)CCN(C4CCOCC4)CC3)cc2OC)nc2[nH]cc(C(F)(F)F)c12 [Example 94] : ____
Result block: 101 to 300 nM

Query block: Reported IC50, molecule CCNc1cc(Nc2ccc(S(C)(=O)=O)cc2OC)nc2[nH]cc(Cl)c12 [Example 81] : ____
Result block: 301 to 1000 nM

Query block: Reported IC50, molecule CNc1cc(Nc2cc(F)c(S(=O)(=O)N3CCC(N4CCOCC4)CC3)cc2OC)nc2[nH]cc(C(F)(F)F)c12 [Example 265] : ____
Result block: < 100 nM

----------
- Tested on: TNF-α
- METHOD_DESCRIPTION: TNF-α secretion inhibition in LPS-treated THP-1 cells (ELISA)
- Format: cell-based
- TEST_SETTINGS: Homo sapiens, compound 0.5 μM, LPS 500 ng/ml, 24 hours, read-out: THP-1/TNF-a (% inhib)
QUANTITY_NAME: inhibition at 0.5 µM (%)
Only the number, expressed in %, is required.

| MOL_SMILES | inhibition at 0.5 µM / % |
| --- | --- |
| CS(=O)(=O)CCNc1cc(Nc2ccc(C(=O)N3CCOCC3)c3c2OCCO3)nc2[nH]cc(C(F)(F)F)c12 | 31 |

Query block: Reported inhibition at 0.5 µM, compound `CCNc1cc(Nc2ccc(C(=O)N3CCN(CCO)CC3)c3c2OCC3)nc2[nH]cc(C(F)(F)F)c12` : ____
Result block: 9.83

Query block: Reported inhibition at 0.5 µM, compound `CNc1cc(Nc2ccc(S(=O)(=O)N3CCC(N4CCOCC4)CC3)c3c2OCCO3)nc2[nH]cc(C(F)(F)F)c12` : ____
Result block: 12.5

----------
pIC50: −log10 of the molar value.
# pIC50 measurements, system: LRRK2 (Homo sapiens)

Use the examples below as a reference point.
| MOLECULE | pIC50 |
| --- | --- |
| CCNc1cc(Nc2ccc(C(=O)N3CCOCC3)c3c2OCCO3)nc2[nH]cc(C#N)c12 [Example 107] | > 7.00 |
| COc1cc(S(=O)(=O)N2CCOCC2)ccc1Nc1cc(NCC(C)C)c2c(C(F)(F)F)c[nH]c2n1 [Example 189] | 6.00 to 6.52 |
| CN(C)CCNc1cc(Nc2ccc(C(=O)N3CCOCC3)c3c2OCCO3)nc2[nH]cc(C(F)(F)F)c12 [Example 171] | > 7.00 |
| COCCNc1cc(Nc2ccc(S(=O)(=O)N3CCC(N4CCOCC4)CC3)cc2OC)nc2[nH]cc(C#N)c12 [Example 140] | > 7.00 |
| COc1cc(S(C)(=O)=O)ccc1Nc1cc(NC2CC2)c2c(C(F)(F)F)c[nH]c2n1 [Example 187] | 6.00 to 6.52 |

Query block: Reported pIC50, molecule COc1cc(S(C)(=O)=O)ccc1Nc1cc(NCCS(C)(=O)=O)c2c(C(F)(F)F)c[nH]c2n1 [Example 193] : ____
Result block: 6.00 to 6.52

Query block: Reported pIC50, molecule CS(=O)(=O)CCNc1cc(Nc2ccc(C(=O)N3CCOCC3)c3c2OCCO3)nc2[nH]cc(C#N)c12 [Example 110] : ____
Result block: > 7.00

----------
- TARGET_DESC: UniProt Q5S007
- METHOD_DESCRIPTION: scanMAX Kinase panel (DiscoverX), % control
- Assay type: binding
- Set-up: purchased DiscoverX
- TEST_SETTINGS: <35% = active
- Description: Specifically, for Examples 162, 160, 105, 217, 205, 96, 207, 184, 206, 221, 238, and 237 selected among the example compounds of the present invention, it was decided to measure enzyme (kinase) selectivity by DiscoverX, and the experiment was conducted using a panel for scanMAX™ Kinase analysis. […] Also, in the enzyme selectivity of the present invention, if the control percentage for each enzyme was <35% (i.e., less than 35%), it was determined to have activity against the relevant enzyme.
- Sequence (Q5S007 whole entry): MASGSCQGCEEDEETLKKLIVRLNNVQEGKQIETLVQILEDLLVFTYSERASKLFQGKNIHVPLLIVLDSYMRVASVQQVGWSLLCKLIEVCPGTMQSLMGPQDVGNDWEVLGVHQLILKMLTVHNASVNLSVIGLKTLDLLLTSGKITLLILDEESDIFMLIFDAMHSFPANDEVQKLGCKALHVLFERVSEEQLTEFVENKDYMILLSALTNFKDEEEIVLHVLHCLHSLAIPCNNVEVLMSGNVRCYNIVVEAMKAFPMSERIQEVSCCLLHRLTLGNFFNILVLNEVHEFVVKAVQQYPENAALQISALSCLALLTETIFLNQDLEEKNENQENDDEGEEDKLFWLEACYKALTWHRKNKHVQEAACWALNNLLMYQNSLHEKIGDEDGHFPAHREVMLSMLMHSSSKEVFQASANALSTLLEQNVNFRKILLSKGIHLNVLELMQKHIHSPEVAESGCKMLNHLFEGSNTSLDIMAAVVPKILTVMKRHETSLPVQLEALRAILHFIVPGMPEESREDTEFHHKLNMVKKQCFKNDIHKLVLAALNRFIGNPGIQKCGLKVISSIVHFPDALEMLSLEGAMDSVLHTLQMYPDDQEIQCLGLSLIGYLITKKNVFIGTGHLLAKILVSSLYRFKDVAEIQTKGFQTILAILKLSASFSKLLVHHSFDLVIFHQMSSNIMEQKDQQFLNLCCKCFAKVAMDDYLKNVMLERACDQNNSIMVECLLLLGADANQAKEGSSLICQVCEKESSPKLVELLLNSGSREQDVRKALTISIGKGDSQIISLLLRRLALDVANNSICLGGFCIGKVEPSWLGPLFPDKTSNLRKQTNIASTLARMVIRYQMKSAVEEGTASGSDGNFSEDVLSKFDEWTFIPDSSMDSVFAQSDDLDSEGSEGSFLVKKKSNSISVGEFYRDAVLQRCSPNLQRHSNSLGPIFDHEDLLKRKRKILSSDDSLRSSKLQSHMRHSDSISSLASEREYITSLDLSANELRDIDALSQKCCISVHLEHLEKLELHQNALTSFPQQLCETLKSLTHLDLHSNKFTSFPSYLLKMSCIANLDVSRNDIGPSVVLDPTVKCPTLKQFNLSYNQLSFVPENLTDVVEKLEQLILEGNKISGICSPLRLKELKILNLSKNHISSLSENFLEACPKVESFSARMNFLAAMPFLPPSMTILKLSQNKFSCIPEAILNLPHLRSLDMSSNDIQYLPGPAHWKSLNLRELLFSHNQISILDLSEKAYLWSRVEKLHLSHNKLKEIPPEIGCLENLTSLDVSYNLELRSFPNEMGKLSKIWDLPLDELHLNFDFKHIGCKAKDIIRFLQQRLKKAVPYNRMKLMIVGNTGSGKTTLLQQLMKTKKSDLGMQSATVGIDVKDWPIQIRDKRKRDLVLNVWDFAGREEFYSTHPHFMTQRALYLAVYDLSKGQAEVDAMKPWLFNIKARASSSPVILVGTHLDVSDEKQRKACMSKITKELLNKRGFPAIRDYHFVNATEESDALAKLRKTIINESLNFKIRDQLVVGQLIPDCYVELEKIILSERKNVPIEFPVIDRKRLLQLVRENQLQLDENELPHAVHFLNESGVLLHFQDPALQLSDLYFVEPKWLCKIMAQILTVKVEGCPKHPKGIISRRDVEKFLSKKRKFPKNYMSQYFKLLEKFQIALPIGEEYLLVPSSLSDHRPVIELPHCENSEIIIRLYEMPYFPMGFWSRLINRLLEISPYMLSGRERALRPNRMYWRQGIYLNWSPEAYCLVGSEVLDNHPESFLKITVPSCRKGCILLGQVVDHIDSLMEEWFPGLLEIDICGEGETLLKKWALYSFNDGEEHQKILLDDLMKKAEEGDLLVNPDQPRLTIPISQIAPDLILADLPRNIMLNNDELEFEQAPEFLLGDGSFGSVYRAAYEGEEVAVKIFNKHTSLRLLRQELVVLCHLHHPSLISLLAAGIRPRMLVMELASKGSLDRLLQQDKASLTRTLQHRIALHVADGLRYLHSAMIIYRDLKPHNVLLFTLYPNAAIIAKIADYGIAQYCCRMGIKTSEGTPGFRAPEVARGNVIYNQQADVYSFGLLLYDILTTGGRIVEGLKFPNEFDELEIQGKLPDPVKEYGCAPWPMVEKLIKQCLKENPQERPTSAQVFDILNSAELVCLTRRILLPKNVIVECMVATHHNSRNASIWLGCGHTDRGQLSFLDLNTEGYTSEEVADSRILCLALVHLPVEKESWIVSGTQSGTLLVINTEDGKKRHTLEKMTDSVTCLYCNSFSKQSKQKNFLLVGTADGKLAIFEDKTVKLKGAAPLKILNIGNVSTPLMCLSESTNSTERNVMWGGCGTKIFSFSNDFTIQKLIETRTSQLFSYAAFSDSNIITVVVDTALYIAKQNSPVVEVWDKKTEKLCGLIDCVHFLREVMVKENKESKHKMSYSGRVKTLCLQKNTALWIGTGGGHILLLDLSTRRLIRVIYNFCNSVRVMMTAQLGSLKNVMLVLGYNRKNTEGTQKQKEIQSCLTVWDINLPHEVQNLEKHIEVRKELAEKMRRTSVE
QUANTITY_NAME: remaining binding at 1 µM (%)
Only the number, expressed in %, is required.

Use the examples below as a reference point.
| COMPOUND | remaining binding at 1 µM (%) |
| --- | --- |
| CNc1cc(Nc2ccc(C(=O)N3CC[C@H](N4CCOCC4)C3)c3c2OCC3)nc2[nH]cc(C(F)(F)F)c12 [Example 217] | 1 |
| CCNc1cc(Nc2ccc(C(=O)N3CCC(N4C[C@@H]5C[C@H]4CO5)CC3)c3c2OCC3)nc2[nH]cc(C(F)(F)F)c12 [Example 105] | 0 |
| CCCNc1cc(Nc2ccc(C(=O)N3CCC(N4CCOCC4)CC3)c3c2OCCO3)nc2[nH]cc(C(F)(F)F)c12 [Example 162] | 2.8 |
| CNc1cc(Nc2ccc(P3(=O)CCN(C4CC4)CC3)cc2OC)nc2[nH]cc(C(F)(F)F)c12 [Example 205] | 18 |

Query block: Reported remaining binding at 1 µM, compound CNc1cc(Nc2ccc(S(=O)(=O)N3CCC(N4CCOCC4)CC3)cc2OC)nc2[nH]cc(C(F)(F)F)c12 [Example 184] : ____
Result block: 3.8

Query block: Reported remaining binding at 1 µM, compound COCCNc1cc(Nc2ccc(P3(=O)CCN(C4CC4)CC3)cc2OC)nc2[nH]cc(C(F)(F)F)c12 [Example 207] : ____
Result block: 20

Query block: Reported remaining binding at 1 µM, compound CCNc1cc(Nc2ccc(P3(=O)CCN(C4CC4)CC3)cc2OC)nc2[nH]cc(C(F)(F)F)c12 [Example 206] : ____
Result block: 23

Query block: Reported remaining binding at 1 µM, compound O=C(c1ccc(Nc2cc(C3CC3)c3c(C(F)(F)F)c[nH]c3n2)c2c1OCCO2)N1CCC(N2CCOCC2)CC1 [Example 221] : ____
Result block: 14

Query block: Reported remaining binding at 1 µM, compound CNc1cc(Nc2ccc(C(=O)N3CCC(N4CCOCC4)CC3)c3c2OCCO3)nc2[nH]cc(C(F)(F)F)c12 [Example 160] : ____
Result block: 2.8
